Target: RET kinase G810R (Homo sapiens, UniProt P07949, G810R)
Sequence (P07949 29-1114 G810R): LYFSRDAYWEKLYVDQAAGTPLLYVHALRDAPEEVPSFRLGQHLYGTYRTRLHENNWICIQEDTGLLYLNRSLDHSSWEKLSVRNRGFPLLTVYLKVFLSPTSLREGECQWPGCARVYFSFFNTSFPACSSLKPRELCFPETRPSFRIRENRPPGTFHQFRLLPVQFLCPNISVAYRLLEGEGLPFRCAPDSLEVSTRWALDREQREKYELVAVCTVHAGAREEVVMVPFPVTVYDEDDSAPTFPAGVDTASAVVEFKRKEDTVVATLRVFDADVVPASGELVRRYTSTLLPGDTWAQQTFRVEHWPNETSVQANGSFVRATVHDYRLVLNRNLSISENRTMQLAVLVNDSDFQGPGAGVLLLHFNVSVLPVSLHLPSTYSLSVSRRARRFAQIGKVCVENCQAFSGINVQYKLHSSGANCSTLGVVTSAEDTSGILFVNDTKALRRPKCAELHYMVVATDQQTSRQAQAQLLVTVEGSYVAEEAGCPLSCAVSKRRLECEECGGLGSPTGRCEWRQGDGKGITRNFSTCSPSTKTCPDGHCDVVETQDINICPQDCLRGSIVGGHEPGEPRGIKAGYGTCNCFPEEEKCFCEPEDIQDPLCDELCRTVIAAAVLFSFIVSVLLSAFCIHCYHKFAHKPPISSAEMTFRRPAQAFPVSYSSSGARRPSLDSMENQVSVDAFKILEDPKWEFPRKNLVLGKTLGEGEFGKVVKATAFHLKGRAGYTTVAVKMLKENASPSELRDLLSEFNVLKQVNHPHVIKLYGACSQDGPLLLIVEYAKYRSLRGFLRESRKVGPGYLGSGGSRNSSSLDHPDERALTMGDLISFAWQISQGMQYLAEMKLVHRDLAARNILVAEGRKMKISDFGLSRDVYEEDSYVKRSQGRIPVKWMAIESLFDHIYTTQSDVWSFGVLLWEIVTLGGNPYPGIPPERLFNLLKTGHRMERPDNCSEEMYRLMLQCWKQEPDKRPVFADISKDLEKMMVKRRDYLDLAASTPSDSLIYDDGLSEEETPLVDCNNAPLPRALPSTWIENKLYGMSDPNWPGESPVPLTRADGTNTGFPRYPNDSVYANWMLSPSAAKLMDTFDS
Assay: RET Enzyme Assay (HTRF KinEASE-TK), G810R
MEASUREMENT_TYPE: log10 of IC50 (log10 of the value in nM)
Please interpret these as log10 of IC50 where IC50 is in nM.

Consider the worked cases shown below.
# COMPOUND, MEASUREMENT_TYPE, MEASURED_NUMBER
measured = [
    ("CC(C)n1nc(-c2noc(C3CC3)c2C2=CCC(O)CC2)c2c(N)ncnc21 (stereo not drawn) [Example 14]", "log10 of IC50", 0.61),
    ("CC(C)n1nc(-c2noc(C3CC3)c2-c2cccnc2)c2c(N)ncnc21 [Example 7]", "log10 of IC50", 0.92),
    ("CC(C)c1cc(-c2nn(C(C)C)c3ncnc(N)c23)n(C2CCCCO2)n1 (stereo not drawn) [Example 20]", "log10 of IC50", 1.85),
    ("CC(C)n1nc(-c2noc(C3CC3)c2-c2ncccn2)c2c(N)ncnc21 [Example 11]", "log10 of IC50", 0.54),
    ("CC(C)n1nc(-c2noc(C3CC3)c2-c2ccn(C)n2)c2c(N)ncnc21 [Example 2]", "log10 of IC50", 0.64),
]

The compound listed as Cc1cc(-c2nn(C(C)C)c3ncnc(N)c23)n(C2CCCCO2)n1 (stereo not drawn) [Example 21] shows log10 of IC50 equal to 1.29

Sample CC(C)n1nc(-c2cc(-c3ccccc3)nn2C2CCCCO2)c2c(N)ncnc21 (stereo not drawn) [Example 24] ; log10 of IC50 observed: 1.74

# compound CC(C)n1nc(-c2noc([C@@H](C)O)c2-c2ccccn2)c2c(N)ncnc21 [Example 18] ; its log10 of IC50 = 0.64

GET /value?item= CC(C)n1nc(-c2noc(C3CC3)c2-c2cnn(C)c2)c2c(N)ncnc21 [Example 3] &field=log10 of IC50 returns 1.10

====

Biological target: RET kinase V804M (Homo sapiens, UniProt P07949, V804M)
Sequence (P07949 29-1114 V804M): as the sequence (P07949 29-1114 G810R) above, with V776M, R782G counted along it
Test: RET Enzyme Assay (HTRF KinEASE-TK), V804M
pIC50: −log10 of the molar value.
Label t for high-side pIC50 (at or above 8) and f for low-side pIC50 (below it).

# MOLECULE, GROUP_LABEL
rows = [
    ("CC(C)n1nc(-c2noc([C@@H](C)O)c2-c2ccccn2)c2c(N)ncnc21 [Example 18]", "t"),
    ("CC(C)n1nc(-c2ccnn2C2CCCCO2)c2c(N)ncnc21 (stereo not drawn) [Example 23]", "f"),
    ("CC(C)n1nc(-c2noc(C3CC3)c2-c2ncccn2)c2c(N)ncnc21 [Example 11]", "t"),
    ("CC(C)n1nc(-c2noc(C3CC3)c2-c2ccccc2)c2c(N)ncnc21 [Example 6]", "f"),
    ("CC(C)n1nc(-c2noc(C3CC3)c2-c2ccn(C)n2)c2c(N)ncnc21 [Example 2]", "t"),
    ("CC(C)n1nc(-c2noc(C3CC3)c2C2=CCCCO2)c2c(N)ncnc21 [Example 9]", "t"),
    ("CC(C)n1nc(-c2noc(C3CC3)c2C2=CCOCC2)c2c(N)ncnc21 [Example 4]", "f"),
]

# input Please tell me: is the molecule CC(C)n1nc(-c2noc(C3CC3)c2C2=CCC(=O)CC2)c2c(N)ncnc21 [Example 5] at or over 8 in terms of pIC50?
# output f
